- System: U2OS
- TEST: Incucyte cell viability with U2OS; further: unitless GR value; below 1 slowed growth and below 0 cell loss
- Format: toxicity, cell-based
- CONDITION_CONTEXT: human, 0 h, 10 µM, compound concentration 10 uM, replicate number 1

>  <MOLECULE>
Cc1ccc2c(NS(=O)(=O)c3ccccc3Cl)cccc2c1Oc1ncccc1-c1ccnc(N[C@H]2CCCNC2)n1.Cl

>  <Growth Rate>
0.22

$$$$
>  <MOLECULE>
N#CC[C@H](C1CCCC1)n1cc(-c2ncnc3[nH]ccc23)cn1

>  <Growth Rate>
-1

$$$$
>  <MOLECULE>
Cn1nccc1Nc1nccc(-c2cc3c(s2)C(C)(C)N(CCN2CCOCC2)C3=O)n1

>  <Growth Rate>
-0.62

$$$$
>  <MOLECULE>
COc1ccccc1[C@@H]1CNCCC12CCN(C(=O)[C@](OC)(c1ccccc1)C(F)(F)F)CC2

>  <Growth Rate>
-0.8

$$$$
>  <MOLECULE>
Cn1cc(C(=O)O)c2ccc(N3CCC(OCc4c(-c5c(Cl)cccc5Cl)noc4C4CC4)CC3)cc21

>  <Growth Rate>
-0.23

$$$$
>  <MOLECULE>
COc1cc(O)c(C(CC(=O)N2C[C@H](C)C[C@H](C)C2)c2ccc3c(c2)OCO3)c(OC)c1 (some centres undefined)

>  <Growth Rate>
0.96

$$$$
>  <MOLECULE>
CCCCc1oc2ccccc2c1C(=O)c1cc(I)c(OCCN(CC)CC)c(I)c1.Cl [AMIODARONE HYDROCHLORIDE]

>  <Growth Rate>
0.24

$$$$
>  <MOLECULE>
Cc1cc(OCCC(C)(C)O)cc(C)c1-c1ccc(F)c2c1CC[C@H]2Oc1ccc2c(c1)OC[C@H]2CC(=O)O

>  <Growth Rate>
0.95

$$$$
>  <MOLECULE>
Cc1cccc(-c2nn3c(c2-c2ccnc4ccc(C(N)=O)cc24)CCC3)n1

>  <Growth Rate>
-0.43

$$$$
>  <MOLECULE>
CN[C@@H](C)C(=O)N[C@H]1CCCC[C@H]2CC[C@@H](C(=O)N[C@@H](c3ccccc3)c3cn(CCCCc4ccc(CCCCn5cc([C@@H](NC(=O)[C@@H]6CC[C@@H]7CCCC[C@H](NC(=O)[C@H](C)NC)C(=O)N76)c6ccccc6)nn5)cc4)nn3)N2C1=O

>  <Growth Rate>
-0.95

$$$$
>  <MOLECULE>
Cc1cn(CCN2CCN(c3ccccc3-c3cc(C#N)cc(C(=O)NCCCN4CCCC4)c3)CC2)c2ccccc12

>  <Growth Rate>
-1

$$$$
>  <MOLECULE>
CN(c1ccc(C(F)(F)F)cc1)S(=O)(=O)c1ccc(C(=O)Nc2nc(-c3ccccn3)cs2)cc1

>  <Growth Rate>
-1

$$$$
>  <MOLECULE>
Cc1cc(-c2cnc(N)c3c(-c4ccc5scnc5c4)csc23)n(C)n1

>  <Growth Rate>
-0.98

$$$$
>  <MOLECULE>
O=C1COc2cc(C(=O)N(Cc3ccc(C(=O)Nc4ccncn4)cc3)C3CC3)ccc2N1

>  <Growth Rate>
-0.53

$$$$

---

- Test system: HEK-293T
- TEST: Incucyte cell viability with HEK293T; further: unitless GR value; below 1 slowed growth and below 0 cell loss
- Type: toxicity, cell-based
- CONDITION_CONTEXT: human, 18 h, 10 µM, compound concentration 10 uM, replicate number 1

>  <MOLECULE>
CN(C)[C@H]1CCc2nc(NC(=O)c3cccc(Cn4cc(-c5ccc(C#N)cc5)cn4)c3)sc2C1.O=C(O)C(F)(F)F

>  <TARGET_DESC>
HEK-293T

>  <Growth Rate>
0.59

$$$$
>  <MOLECULE>
CC(C)S(=O)(=O)c1ccccc1Nc1nc(N[C@@H]2CCCN(CCCCCCCNC(=O)COc3cccc4c3C(=O)N(C3CCC(=O)NC3=O)C4=O)C2)ncc1Cl (some centres not stated)

>  <TARGET_DESC>
HEK-293T

>  <Growth Rate>
-0.31

$$$$
>  <MOLECULE>
O=C(CNC(=O)c1ccc(-c2ccccc2)cc1)NC1CCCc2ccccc21 (configuration not stated)

>  <TARGET_DESC>
HEK-293T

>  <Growth Rate>
0.26

$$$$
>  <MOLECULE>
CC(C)(C)OC(=O)CN(Cc1ccc(Cl)cc1)Cc1ccc([N+](=O)[O-])s1

>  <TARGET_DESC>
HEK-293T

>  <Growth Rate>
0.76

$$$$
>  <MOLECULE>
O=C(Cc1ccccc1)Nc1nnc(N2CC[C@@H]3[C@H]2CN3c2cccnn2)s1

>  <TARGET_DESC>
HEK-293T

>  <Growth Rate>
0.67

$$$$
>  <MOLECULE>
Cc1c(CN2CCC3(CC2)CN(c2ncnc4sc(CC(F)(F)F)cc24)C3)ccc2c1cc(C#N)n2CC(N)=O

>  <TARGET_DESC>
HEK-293T

>  <Growth Rate>
0.63

$$$$
>  <MOLECULE>
COc1cc([N+](=O)[O-])ccc1NC(=O)c1ccccc1O

>  <TARGET_DESC>
HEK-293T

>  <Growth Rate>
-0.01

$$$$
>  <MOLECULE>
Cc1cc(NC(=O)c2cccc(NC(=O)/C=C/CN(C)C)c2)ccc1Nc1nccc(-c2cccnc2)n1

>  <TARGET_DESC>
HEK-293T

>  <Growth Rate>
-0.23

$$$$
>  <MOLECULE>
COc1ccc(C(F)(F)F)cc1NC(=O)Nc1ccc(Oc2cc(C)nc(N)n2)c2ccccc12

>  <TARGET_DESC>
HEK-293T

>  <Growth Rate>
0.55

$$$$
>  <MOLECULE>
COc1cc(-c2cn(C)c(=O)c3cnccc23)cc(OC)c1CN(C)C

>  <TARGET_DESC>
HEK-293T

>  <Growth Rate>
0.85

$$$$
>  <MOLECULE>
CCS(=O)(=O)Nc1cccc(Oc2cncc(Nc3ccc(I)cc3F)c2C(N)=O)c1

>  <TARGET_DESC>
HEK-293T

>  <Growth Rate>
0.77

$$$$
>  <MOLECULE>
CC(C)C[C@H](NC(=O)[C@@H](O)[C@H](N)Cc1ccccc1)C(=O)O

>  <TARGET_DESC>
HEK-293T

>  <Growth Rate>
0.49

$$$$
>  <MOLECULE>
CC[C@@H](Nc1c(C#N)c(-c2ccc(-c3cccc(C)c3F)cc2)nc2cnccc12)C(=O)O

>  <TARGET_DESC>
HEK-293T

>  <Growth Rate>
0.86

$$$$
>  <MOLECULE>
COc1cc(C(=O)NC2CCN(C)CC2)ccc1Nc1ncc(C(F)(F)F)c(NCc2ccc(C)cc2N(C)S(C)(=O)=O)n1.O=CO.O=CO

>  <TARGET_DESC>
HEK-293T

>  <Growth Rate>
-0.54

$$$$
>  <MOLECULE>
CP(C)(=O)c1ccc(CNC(=O)C2CCN(S(=O)(=O)c3cc(Cl)cc(Cl)c3)CC2)cc1

>  <TARGET_DESC>
HEK-293T

>  <Growth Rate>
0.9

$$$$
>  <MOLECULE>
Cc1cc(-c2nc(-c3ccc(OC(F)(F)F)cc3)no2)nn1Cc1ccnc(N2CCN(C3CC3)CC2)c1

>  <TARGET_DESC>
HEK-293T

>  <Growth Rate>
0.25

$$$$
>  <MOLECULE>
C[C@@H]1C[C@H](N)C[C@H](c2ccncc2NC(=O)c2ccc(F)c(-c3c(F)cccc3F)n2)C1

>  <TARGET_DESC>
HEK-293T

>  <Growth Rate>
0.27

$$$$
>  <MOLECULE>
CC(C)C(=O)N[C@@H]1CCN(C(=O)Nc2nc3c(s2)-c2nc(-c4ccccc4Cl)ncc2CC3)C1

>  <TARGET_DESC>
HEK-293T

>  <Growth Rate>
0.29

$$$$
>  <MOLECULE>
O=c1cc(-c2cc(F)c(Cl)nc2Cl)[nH]c2c(-c3ccccc3)c(C(F)(F)F)nn12

>  <TARGET_DESC>
HEK-293T

>  <Growth Rate>
0.93

$$$$
>  <MOLECULE>
OCC1OC(n2cnc3cc(Cl)c(Cl)cc32)C(O)C1O (configuration not stated)

>  <TARGET_DESC>
HEK-293T

>  <Growth Rate>
0.48

$$$$
>  <MOLECULE>
CC(=O)Oc1ccc2c(c1)[C@@]1(C)CCC[C@](C)(C(=O)OC(=O)[C@@]3(C)CCC[C@]4(C)c5cc(OC(C)=O)ccc5CC[C@@H]34)[C@@H]1CC2 [ACETYL PODOCARPIC ACID ANHYDRIDE]

>  <TARGET_DESC>
HEK-293T

>  <Growth Rate>
0.8

$$$$
>  <MOLECULE>
Cc1cc(-c2cnc(N)c3c(-c4ccc5scnc5c4)csc23)n(C)n1

>  <TARGET_DESC>
HEK-293T

>  <Growth Rate>
0.02

$$$$

---

- Tested on: Fibroblast
- TEST: Incucyte cell viability with human fibroblast; further: unitless GR value; below 1 slowed growth and below 0 cell loss
- Type: toxicity, cell-based
- CONDITION_CONTEXT: 18 h, 10 µM, compound concentration 10 uM, replicate number 2
Using Growth Rate as the sorting value, the categories are low range (below 0.5), mid range (0.5 to below 0.8), high range (0.8 or more)

>  <MOLECULE>
CCN1CCN(Cc2ccc(NC(=O)c3ccc(C)c(NC(=O)c4cncc(-c5cccs5)c4)c3)cc2C(F)(F)F)CC1

>  <CLASSIFICATION>
low range

$$$$
>  <MOLECULE>
O=C(Cc1ccccc1[N+](=O)[O-])Nc1ccc(-c2ccc(C(O)(C(F)(F)F)C(F)(F)F)cc2F)cc1

>  <CLASSIFICATION>
low range

$$$$
>  <MOLECULE>
COc1cc(NC(=O)c2ccc(-c3ccc(Cl)cc3)o2)cc(OC)c1

>  <CLASSIFICATION>
mid range

$$$$
>  <MOLECULE>
COc1c(C(=O)/C=C/c2ccccc2)c(O)c(OC)c2occc12

>  <CLASSIFICATION>
high range

$$$$
>  <MOLECULE>
Cn1nccc1-c1ccc(Sc2cccc(C3(C(N)=O)CCOCC3)c2)cc1 [PF-4191834]

>  <CLASSIFICATION>
low range

$$$$
>  <MOLECULE>
N#Cc1ccc(COc2ccc(Br)cc2CNCCO)cn1.O=CO

>  <CLASSIFICATION>
mid range

$$$$
>  <MOLECULE>
COc1ccc(COc2ccc(Cc3cnc(N)nc3N)cc2OC)cc1 [GW632580X]

>  <CLASSIFICATION>
low range

$$$$
>  <MOLECULE>
CN(C)C(=O)Cn1cc(-c2nc([C@@](C)(c3ccc(-c4cnc(N)nc4)cc3)C3CC3)no2)cn1 [BI 665915]

>  <CLASSIFICATION>
high range

$$$$
>  <MOLECULE>
CC[C@H](CO)Nc1nc(Nc2cccc(-c3ccccn3)c2)c2ncn(C(C)C)c2n1.Cl.O

>  <CLASSIFICATION>
low range

$$$$
>  <MOLECULE>
Cc1c(N2CCCC2)nc2ccc(Br)cc2c1C(=O)NC[C@H](CCC(=O)O)c1ccccc1Cl [BAY-6672]

>  <CLASSIFICATION>
high range

$$$$
>  <MOLECULE>
CN(C(=O)CCOCCOCCOCCOCCNc1cccc2c1C(=O)N(C1CCC(=O)NC1=O)C2=O)[C@H]1CC[C@@]2(C)[C@@H](CC[C@@H]3[C@@H]2CC[C@]2(C)[C@@H](c4ccc5ccncc5c4)CC[C@@H]32)C1 (some centres undefined)

>  <CLASSIFICATION>
high range

$$$$
>  <MOLECULE>
Cl.Cl.O=[N+]([O-])c1ccc(CN2CCOCCOCCN(Cc3ccc([N+](=O)[O-])cc3)CCOCC2)cc1

>  <CLASSIFICATION>
mid range

$$$$
>  <MOLECULE>
C[C@H](NC(=O)c1cc(Cl)ccc1Oc1ccc(F)cc1)c1ccc(C(=O)O)cc1

>  <CLASSIFICATION>
high range

$$$$
>  <MOLECULE>
O=C(Cc1ccccc1)Nc1nnc(N2C[C@H]3C[C@@H]2CN3c2cccnn2)s1 [A-446]

>  <CLASSIFICATION>
low range

$$$$
